System: Escherichia coli
Assay: Antibacterial activity against Escherichia coli KC-14 infected in po dosed mouse assessed as bacterial growth inhibition
Assay type: functional
Conditions: Escherichia coli, KC-14, po, read-out: ED50
Field: label. Allowed values: True (ED50 < 1 mg/kg) or False (ED50 >= 1 mg/kg).

[
  {
    "COMPOUND": "COc1c(N2CCN(C)CC2)c(F)cc2c(=O)c(C(=O)O)c3n(c12)C(C)S3 (stereo not given)",
    "LABEL_CLASS": "False"
  },
  {
    "COMPOUND": "CC1Sc2c(C(=O)O)c(=O)c3cc(F)c(N4CCN(C)CC4)cc3n21 (stereo not given)",
    "LABEL_CLASS": "True"
  },
  {
    "COMPOUND": "CC1COc2c(N3CCN(C)CC3)c(F)cc3c(=O)c(C(=O)O)cn1c23 (stereo not given)",
    "LABEL_CLASS": "False"
  },
  {
    "COMPOUND": "O=C(O)c1cn(C2CC2)c2cc(N3CCNCC3)c(F)cc2c1=O",
    "LABEL_CLASS": "True"
  }
]
